What GI50 was measured for each of the following?
system: SF-539; test: NCI tumour cell line growth inhibition, 48 h
The source made the active and inactive calls. No stated cut-off is given here; in the data, active = GI50 up to about 1.1 µM and inactive = higher.

Enquiry: Output reported GI50 of the compound O=[N+]([O-])C(Cl)C(Cl)C(Cl)=C(Cl)Cl (stereo unspecified) on SF-539.
Return: 38.5 µM (inactive)

Enquiry: Output reported GI50 of the compound COc1ccc(NC(=O)NS(=O)(=O)c2ccc(C)cc2)nn1 on SF-539.
Return: > 100 µM (inactive)

Enquiry: Output reported GI50 of the compound O=C1C=CC2CCC1C2 (stereo unspecified) on SF-539.
Return: 34.7 µM (inactive)

Enquiry: Output reported GI50 of the compound O=C1/C(=C/c2ccc(O)cc2)CC/C1=C\c1ccc(O)cc1 on SF-539.
Return: 22.6 µM (inactive)

Enquiry: Output reported GI50 of the compound O=C(CCC(=O)c1ccc(Cl)cc1)NO on SF-539.
Return: > 100 µM (inactive)

Enquiry: Output reported GI50 of the compound CC(=O)N1C/C(=C\c2ccc(N(C)C)cc2)C(=O)/C(=C/c2ccc(N(C)C)cc2)C1 on SF-539.
Return: 27.1 µM (inactive)
